Tested on: creatine kinase (CK) in human serum
Assay: CK activity measured with enzyme solutions containing SH compounds as CK reactivator, fresh and after 1 month of storage (Example 1 / Comparative Example 1)
Format: biochemical
Conditions: average of 5 samples; enzyme solution stored at 20° C. for 1 month; TG 100, 2ME 26, 2MES 26, NAC 26, L-cysteine 6.5, GSH 12, TDG 5, DTT 6.5 mM
Hi, to clarify the labels: 1 covers CK activity value, Average from 200 IU/l upward, -1 covers anything below 200 IU/l.

> print(dat)
                           molecular.string                     target.or.system  assigned.class
1                   CC(=O)N[C@@H](CS)C(=O)O  creatine kinase (CK) in human serum              -1
2  O.O.OC[C@H]1O[C@@H](S)[C@H](O)[C@@H](O)[C@@H]1O.[Na].[Na]  creatine kinase (CK) in human serum              -1
3                                      OCCS  creatine kinase (CK) in human serum               1
4                         N[C@@H](CS)C(=O)O  creatine kinase (CK) in human serum              -1

* * *

# CK activity value, Average listing for each entry below
Tested on: creatine kinase (CK) in human serum
Assay: CK activity measured with enzyme solutions containing SH compounds as CK reactivator, fresh and after 1 month of storage (Example 1 / Comparative Example 1)
Type: biochemical
Conditions: average of 5 samples; enzyme solution stored at 10° C. for 1 month; TG 100, 2ME 26, 2MES 26, NAC 26, L-cysteine 6.5, GSH 12, TDG 5, DTT 6.5 mM
measurement label: CK activity value, Average (IU/l)

> print(dat)
                                   molecule  unit  reported.result
1            N[C@@H](CS)C(=O)O [L-cysteine]  IU/l              158
2  CC(=O)N[C@@H](CS)C(=O)O [NAC, N-acetylcysteine]  IU/l              206
3             OCCS [2ME, 2-mercaptoethanol]  IU/l              210
4  O=S(=O)(O)CCS [2MES, 2-mercaptoethanesulfonic acid]  IU/l              204
5  OCC(O)CS (stereo not drawn) [TG, thioglycerol]  IU/l              208
6  O.O.OC[C@H]1O[C@@H](S)[C@H](O)[C@@H](O)[C@@H]1O.[Na].[Na] [TDG]  IU/l                1

* * *

# CK activity, relative value listing for each entry below
Test system: creatine kinase (CK) in human serum
Assay: CK activity measured with enzyme solutions containing SH compounds as CK reactivator, fresh and after 1 month of storage (Example 1 / Comparative Example 1)
Format: biochemical
Settings: enzyme solution stored at 20° C. for 1 month; NAC just after preparation = 100%
measurement label: CK activity, relative value

> print(dat)
                                   compound  reported.result
1            N[C@@H](CS)C(=O)O [L-cysteine]            28.4%
2  N[C@@H](CCC(=O)N[C@@H](CS)C(=O)NCC(=O)O)C(=O)O [GSH, reduced-form glutathione]            81.9%
3  OCC(O)CS (stereo not shown) [TG, thioglycerol]           100.9%
4  O=S(=O)(O)CCS [2MES, 2-mercaptoethanesulfonic acid]            96.3%
5  CC(=O)N[C@@H](CS)C(=O)O [NAC, N-acetylcysteine]            91.2%
6             OCCS [2ME, 2-mercaptoethanol]           102.4%
7  O.O.OC[C@H]1O[C@@H](S)[C@H](O)[C@@H](O)[C@@H]1O.[Na].[Na] [TDG]             0.6%

* * *

Test system: creatine kinase (CK) in human serum
Assay: CK activity measured with enzyme solutions containing SH compounds as CK reactivator, fresh and after 1 month of storage (Example 1 / Comparative Example 1)
Type: biochemical
Settings: Sample 4; enzyme solution just after preparation; TG 100 mM, 2ME 26 mM, 2MES 26 mM, NAC 26 mM
# CK activity value listing for each entry below
measurement label: CK activity value (IU/l)

> print(dat)
                      compound  unit  reported.result
1                O=S(=O)(O)CCS  IU/l               58
2                         OCCS  IU/l               58
3  OCC(O)CS (stereo not shown)  IU/l               58
4      CC(=O)N[C@@H](CS)C(=O)O  IU/l               56

* * *

# CK activity value listing for each entry below
Tested on: creatine kinase (CK) in human serum
Assay: CK activity measured with enzyme solutions containing SH compounds as CK reactivator, fresh and after 1 month of storage (Example 1 / Comparative Example 1)
Assay type: biochemical
Settings: Sample 1; enzyme solution just after preparation; TG 100 mM, 2ME 26 mM, 2MES 26 mM, NAC 26 mM
measurement label: CK activity value (IU/l)

> print(dat)
                                   compound  unit  reported.result
1             OCCS [2ME, 2-mercaptoethanol]  IU/l              186
2  O=S(=O)(O)CCS [2MES, 2-mercaptoethanesulfonic acid]  IU/l              184
3  CC(=O)N[C@@H](CS)C(=O)O [NAC, N-acetylcysteine]  IU/l              183
4  OCC(O)CS (stereo not shown) [TG, thioglycerol]  IU/l              184

* * *

Target: creatine kinase (CK) in human serum (Homo sapiens, UniProt P06732)
Construct: Five fresh human serum samples were used; from tissue; host or cells: fresh human serum
Sequence (P06732 whole entry): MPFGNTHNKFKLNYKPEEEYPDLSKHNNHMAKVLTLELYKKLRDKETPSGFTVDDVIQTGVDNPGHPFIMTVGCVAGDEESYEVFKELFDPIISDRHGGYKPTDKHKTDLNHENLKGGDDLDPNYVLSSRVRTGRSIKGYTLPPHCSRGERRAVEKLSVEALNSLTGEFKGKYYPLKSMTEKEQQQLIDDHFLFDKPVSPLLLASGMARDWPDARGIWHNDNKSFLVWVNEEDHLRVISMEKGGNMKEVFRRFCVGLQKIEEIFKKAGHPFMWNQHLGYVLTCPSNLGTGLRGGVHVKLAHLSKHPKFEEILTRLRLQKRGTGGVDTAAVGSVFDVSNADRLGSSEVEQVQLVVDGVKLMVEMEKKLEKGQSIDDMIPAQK
Experiment: Inhibitory effect of oxidized products of SH compounds on CK activity (HK/G6PDH UV method, NAC 26 mM as reactivator)
Type: biochemical
Conditions: Sample 1 (fresh human serum); 5 mM SH compound oxidized product, NAC 26 mM, 37° C.

molecule	target or system	CK activity value (IU/l.)
Nc1nc(SSc2nc(N)nc3c2ncn3[C@@H]2O[C@H](CO)[C@@H](O)[C@H]2O)c2ncn([C@@H]3O[C@H](CO)[C@@H](O)[C@H]3O)c2n1 [AMPR oxidized product]	creatine kinase (CK) in human serum (Homo sapiens, UniProt P06732)	0
Nc1cc(O)nc(SSc2nc(N)cc(O)n2)n1 [AHMP oxidized product]	creatine kinase (CK) in human serum (Homo sapiens, UniProt P06732)	161
OCC(O)CSSCC(O)CO (stereo not shown) [TG oxidized product]	creatine kinase (CK) in human serum (Homo sapiens, UniProt P06732)	153
O[C@@H]1CSSC[C@H]1O (relative stereo) [DTT oxidized product]	creatine kinase (CK) in human serum (Homo sapiens, UniProt P06732)	150

* * *

System: creatine kinase (CK) in human serum
Experiment: CK activity measured with enzyme solutions containing SH compounds as CK reactivator, fresh and after 1 month of storage (Example 1 / Comparative Example 1)
Assay type: biochemical
Conditions: Sample 3; enzyme solution stored at 20° C. for 1 month; TG 100, 2ME 26, 2MES 26, NAC 26, L-cysteine 6.5, GSH 12, TDG 5, DTT 6.5 mM
Description: The resulting solution was adjusted to pH 6.7 with sodium hydroxide and stored at a predetermined temperature for a predetermined period. The thus obtained solution were used as enzyme solutions. Five fresh human serum samples were used. To 8 μl of each sample was added 320 μl of each enzyme solution, followed by preincubation for 5 minutes. […] The CK activity value was calculated from the molecular extinction coefficient of the NADPH produced. […]
measurement label: log10 CK activity value (log10 of the value in IU/l)

> print(dat)
                                   compound        measurement.label  reported.result
1  O.O.OC[C@H]1O[C@@H](S)[C@H](O)[C@@H](O)[C@@H]1O.[Na].[Na] [TDG]  log10 CK activity value             0.30
2            N[C@@H](CS)C(=O)O [L-cysteine]  log10 CK activity value             1.52
3  OCC(O)CS (stereo not drawn) [TG, thioglycerol]  log10 CK activity value             2.18
4  CC(=O)N[C@@H](CS)C(=O)O [NAC, N-acetylcysteine]  log10 CK activity value             2.13
5  O=S(=O)(O)CCS [2MES, 2-mercaptoethanesulfonic acid]  log10 CK activity value             2.17
6             OCCS [2ME, 2-mercaptoethanol]  log10 CK activity value             2.19
